Origin of measurements: patent US20260041640A1

ASSAY_SUMMARY: First-in-human clinical study: plasma and whole blood PK of INX-315 (oral QD, ASD tablet)
Format: in vivo
CONDITION_CONTEXT: human, plasma, oral, 300 mg, plasma, 300 mg QD cohort, Day 15, individual subjects; read-out: Cmax
MEASUREMENT_TYPE: Cmax (µg/mL)
Give bare numbers, in µg/mL.

Q. Give the value of Cmax reported for the following: `NS(=O)(=O)c1ccc(Nc2ncc3cc4n(c3n2)C2(CCCCC2)C(=O)NN4)cc1`
A. 0.568

* * *

ASSAY_SUMMARY: First-in-human clinical study: plasma and whole blood PK of INX-315 (oral QD, ASD tablet)
Assay type: in vivo
CONDITION_CONTEXT: human, plasma, oral, 300 mg, plasma, 300 mg QD cohort, Day 15, individual subjects; read-out: t1/2 (converted)
MEASUREMENT_TYPE: half-life (h)
Give bare numbers, in h.

Q. Provide only the value of recorded half-life for `NS(=O)(=O)c1ccc(Nc2ncc3cc4n(c3n2)C2(CCCCC2)C(=O)NN4)cc1`
A. 9.23

* * *

ASSAY_SUMMARY: First-in-human clinical study: plasma and whole blood PK of INX-315 (oral QD, ASD tablet)
Format: in vivo
CONDITION_CONTEXT: human, whole blood, oral, 100 mg, whole blood, 100 mg QD, Day 1, Cohort 1 (Table 28); read-out: Tmax, median
MEASUREMENT_TYPE: Tmax (h)
Numbers only, in h.

Q. Assign Tmax to the following record: `NS(=O)(=O)c1ccc(Nc2ncc3cc4n(c3n2)C2(CCCCC2)C(=O)NN4)cc1`
A. 6

* * *

ASSAY_SUMMARY: First-in-human clinical study: plasma and whole blood PK of INX-315 (oral QD, ASD tablet)
Format: in vivo
CONDITION_CONTEXT: human, plasma, oral, 300 mg, plasma, 300 mg QD cohort, Day 1, geometric mean; read-out: Cmax, Geometric Mean
MEASUREMENT_TYPE: Cmax (µg/mL)
Numbers only, in µg/mL.

Q. # return recorded Cmax for entry NS(=O)(=O)c1ccc(Nc2ncc3cc4n(c3n2)C2(CCCCC2)C(=O)NN4)cc1 [INX-315]
A. 0.628

* * *

ASSAY_SUMMARY: First-in-human clinical study: plasma and whole blood PK of INX-315 (oral QD, ASD tablet)
Type: in vivo
CONDITION_CONTEXT: human, plasma, oral, 200 mg, 200 mg QD (n = 2), 2.0 hr
MEASUREMENT_TYPE: concentration at 2 h (ng/mL)
Answers are plain numbers, in ng/mL.

Q. Hello, please tell me recorded concentration at 2 h for this one: `NS(=O)(=O)c1ccc(Nc2ncc3cc4n(c3n2)C2(CCCCC2)C(=O)NN4)cc1`
A. 246

* * *

ASSAY_SUMMARY: Aqueous solubility of INX-315
Type: physicochemical
CONDITION_CONTEXT: 5% TPGS in PBS, aqueous with cosolvent or surfactant or cyclodextrin, 5% TPGS in PBS; read-out: Total Drug Solubility
MEASUREMENT_TYPE: solubility
Please provide the amount together with its unit, number first.

Q. Annotate the compound `NS(=O)(=O)c1ccc(Nc2ncc3cc4n(c3n2)C2(CCCCC2)C(=O)NN4)cc1` with its measured solubility.
A. 305 µg/mL

* * *

ASSAY_SUMMARY: First-in-human clinical study: plasma and whole blood PK of INX-315 (oral QD, ASD tablet)
Assay type: in vivo
CONDITION_CONTEXT: human, whole blood, oral, 300 mg, Cohort 3 (300 mg QD), Day 1, individual subjects; read-out: AUC Whole Blood
MEASUREMENT_TYPE: AUC (µg·h/mL)
Numbers only, in µg·h/mL.

Q. Identify measured AUC corresponding to `NS(=O)(=O)c1ccc(Nc2ncc3cc4n(c3n2)C2(CCCCC2)C(=O)NN4)cc1`
A. 134
